These entries and their values trace back to patent US10941150B2.

# System: MDA-MB-436 cells
# assay-explanation: Anti-proliferation test (CCK8), singly and combined with TMZ
# Assay type: cell-based
# condition: Homo sapiens, MDA-MB-436, 192 h, MDA-MB-436, combined with 25uM TMZ, 8 days, average; read-out: IC50_Avg
# Lookup of reported IC50 keyed by entry
assay-metric: IC50 (µM)

- C[C@]1(c2nc3c(C(N)=O)cccc3[nH]2)CCCN1 [ABT-888, Veliparib]: 0.018
- CC(C)N1CCC(C)(c2cnn3c2[nH]c2cc(F)cc(C(N)=O)c23)CC1 [Compound 1]: 0.007

* * *

# Test system: MDA-MB-231 cells
# assay-explanation: Anti-proliferation test (CCK8), singly and combined with TMZ
# Assay type: cell-based
# condition: Homo sapiens, MDA-MB-231, 192 h, MDA-MB-231, combined with 1uM TMZ, 8 days, run N=2; read-out: IC50_N = 2
pIC50: −log10 of the molar value.
Recorded pIC50 by entry
assay-metric: pIC50

* CC(C)N1CCC(C)(c2cnn3c2[nH]c2cc(F)cc(C(N)=O)c23)CC1 [Compound 1] | 5.24
* C[C@]1(c2nc3c(C(N)=O)cccc3[nH]2)CCCN1 [ABT-888, Veliparib] | 4.44
